Molecular target: Savinase® 16.0L (Lederbergia lenta)
Construct: purchased Sigma-Aldrich
Sequence (P29600 whole entry): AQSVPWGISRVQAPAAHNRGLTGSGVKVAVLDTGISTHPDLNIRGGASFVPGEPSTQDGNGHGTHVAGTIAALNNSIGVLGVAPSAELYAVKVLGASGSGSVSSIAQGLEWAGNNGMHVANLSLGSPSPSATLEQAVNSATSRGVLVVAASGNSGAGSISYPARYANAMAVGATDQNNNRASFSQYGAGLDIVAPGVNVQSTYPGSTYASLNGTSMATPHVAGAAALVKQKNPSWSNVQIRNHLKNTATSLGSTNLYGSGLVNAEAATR
Assay: Protease storage stability in liquid formulations at 37° C. (Suc-AAPF-pNA assay)
Assay type: biochemical
Settings: base formulation V, 2.0 wt% compound, 0.7 wt% Savinase 16.0 L; 28 d
PROPERTY LABEL: protease activity in the course of time of storage at 37° C. (%)
The reply should be a number in %, with the unit left off.

Request: Which protease activity in the course of time of storage at 37° C. value belongs to O=C(CC(O)(CC(=O)OCc1ccccc1)C(=O)OCc1ccccc1)OCc1ccccc1 [A.8, Tribenzylcitrate] ?
Result: 80

Request: Name the reported protease activity in the course of time of storage at 37° C. value associated with the molecule CCOC(=O)CC(O)(CC(=O)OCC)C(=O)OCC [A.1, Triethylcitrate]
Result: 79

Request: # input molecule: O=C(O)CC(O)(CC(=O)O)C(=O)O [B.1, citric acid, reference compound] ; wanted: its protease activity in the course of time of storage at 37° C.
Result: 57

Request: What measured protease activity in the course of time of storage at 37° C. goes with CCCCOC(=O)CC(O)(CC(=O)OCCCC)C(=O)OCCCC [A.3, Tributylcitrate] ?
Result: 80
